# credit: paper PMC9482650

- tested target: T1, LIN7C, Q9NUP9
- T1 sequence (Q9NUP9 88-185, limits assumed, looked up): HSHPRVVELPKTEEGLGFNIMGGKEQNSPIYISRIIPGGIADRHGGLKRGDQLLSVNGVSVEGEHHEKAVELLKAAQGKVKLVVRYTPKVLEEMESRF
- procedure summary: holdup assay
- Set-up: key: below the threshold = too weak to quantify, mostly under pKd 3.1 to 4
- experimental context: plain residues with an end cap or a label only (N-terminal biotin on a linker: ado-ado)
measurement type: pKd

| binder | pKd |
| --- | --- |
| QKASRNESTF [POLR1D, P0DPB6] | below the threshold |
| PLPPEEESWV [GAS2L2, Q8NHY3] | 3.77 |
| MQILSKPEFI [NPSR1, Q6W5P4] | below the threshold |
| PGKKPEDSRV [SLCO2B1, O94956] | below the threshold |
| THHRKIHTRV [ZNF599, Q96NL3] | below the threshold |

Recorded pKd of IQISELETNV [SLC1A7, O00341] , please. 3.97

Recorded pKd of RSPVATATSC [DUSP5, Q16690] , please. below the threshold

Recorded pKd of TFSRRPKTRV [CD226, Q15762] , please. below the threshold

Recorded pKd of GNDPDRGTSI [GRID2, O43424] , please. below the threshold
